test_system: UniProtKB Q9Y243
Sequence (Q9Y243 whole entry): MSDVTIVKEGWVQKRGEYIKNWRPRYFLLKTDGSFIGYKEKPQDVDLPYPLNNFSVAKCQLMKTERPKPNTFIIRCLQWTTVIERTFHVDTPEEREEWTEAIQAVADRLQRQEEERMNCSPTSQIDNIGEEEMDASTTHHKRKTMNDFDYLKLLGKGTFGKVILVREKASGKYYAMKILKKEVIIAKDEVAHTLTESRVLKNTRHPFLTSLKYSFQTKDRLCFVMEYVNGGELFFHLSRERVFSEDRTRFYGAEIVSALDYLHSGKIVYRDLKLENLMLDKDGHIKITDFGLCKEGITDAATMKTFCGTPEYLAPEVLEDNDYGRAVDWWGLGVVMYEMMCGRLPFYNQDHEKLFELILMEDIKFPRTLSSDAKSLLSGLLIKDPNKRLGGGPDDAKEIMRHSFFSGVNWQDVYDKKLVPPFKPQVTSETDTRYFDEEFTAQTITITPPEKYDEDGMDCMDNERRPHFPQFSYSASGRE
protocol: AKT Kinase Assay (IMAP fluorescent polarisation) vs AKT3
setup_conditions: activated AKT3, FAM Crosstide substrate
Description: Testing of the compounds was performed using an AKT Kinase Assay: Activated AKT isoforms 1, 2 and 3 were assayed utilising a 5′ FAM Crosstide (Seq. GRPRTSSFAEG-OH). The extent of kinase phosphorylation was determined by fluorescent polarisation using IMAP progressive binding reagent, which introduces binding beads which allow the reagent to specifically bind to phosphate residues via covalent co-ordination complex bonds. […]
Counter-ions that a name gives are not always drawn.
assay_endpoint: IC50

# compound, result
records = [
    ("NC1(c2ccc(-c3c(-c4ccccc4)oc4c(C5CC5)nccc4c3=O)cc2)CCC1 [Example 126, hydrochloride]", "> 10 µM"),
    ("NC1(c2ccc(-c3c(-c4ccccc4)oc4c(CN5CC(F)C5)cccc4c3=O)cc2)CCC1", "> 10 µM"),
    ("COc1nccc2c(=O)c(-c3ccc(C4(N)CCC4)cc3)c(-c3ccccc3)oc12 [Example 39, hydrochloride]", "1 to 10 µM"),
    ("NC1(c2ccc(-c3c(-c4ccccc4)oc4c(N5CCNC(=O)C5)cccc4c3=O)cc2)CCC1", "1 to 10 µM"),
    ("NC1(c2ccc(-c3c(-c4ccccc4)oc4c(F)cccc4c3=O)cc2)CCC1", "> 10 µM"),
]

In: Can you look up the measured IC50 of NC1(c2ccc(-c3c(-c4ccccc4)oc4c(ccn5c(=O)[nH]nc45)c3=O)cn2)CCC1 for me?
Out: > 10 µM

In: Also Cn1cc(-c2cccc3c(=O)c(-c4ccc(C5(N)CCC5)cc4)c(-c4ccccc4)oc23)cn1 [Example 55, hydrochloride] , if possible.
Out: 1 to 10 µM

###

test_system: UniProt:P31749
Sequence (P31749 whole entry): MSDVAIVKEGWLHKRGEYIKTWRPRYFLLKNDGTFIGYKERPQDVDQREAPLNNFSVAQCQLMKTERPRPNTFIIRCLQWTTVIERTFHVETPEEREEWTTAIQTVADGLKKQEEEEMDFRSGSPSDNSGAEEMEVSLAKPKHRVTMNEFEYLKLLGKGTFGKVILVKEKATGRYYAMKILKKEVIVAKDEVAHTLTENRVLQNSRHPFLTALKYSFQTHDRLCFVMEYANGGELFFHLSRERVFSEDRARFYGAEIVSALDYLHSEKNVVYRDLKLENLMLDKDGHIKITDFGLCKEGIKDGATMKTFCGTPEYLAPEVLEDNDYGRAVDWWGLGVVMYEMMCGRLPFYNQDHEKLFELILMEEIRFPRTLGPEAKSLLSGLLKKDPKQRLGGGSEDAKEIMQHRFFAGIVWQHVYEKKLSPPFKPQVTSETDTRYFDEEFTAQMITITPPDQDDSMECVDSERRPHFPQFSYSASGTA
protocol: AKT Kinase Assay (IMAP fluorescent polarisation) vs AKT1
setup_conditions: activated AKT1, FAM Crosstide substrate
pIC50: −log10 of the molar value. Structures can show the parent of a compound that is named as a salt.
assay_endpoint: pIC50

Here's what some known entries look like.
# molecule, assay_endpoint, result
measured = [
    ("NC1(c2ccc(-c3c(-c4ccccc4)oc4cc(Br)ccc4c3=O)cc2)CCC1 [Example 13]", "pIC50", "5.00 to 6.00"),
    ("Cn1cc2ccc3c(=O)c(-c4ccc(C5(N)CCC5)cc4)c(-c4ccccc4)oc3c2n1 [Example 59]", "pIC50", "≥ 6.00"),
    ("NC1(c2ccc(-c3c(-c4ccccc4)oc4cc5c(cc4c3=O)OCCO5)cc2)CCC1 [Example 8]", "pIC50", "5.00 to 6.00"),
    ("CN1C(=O)COc2c1ccc1c(=O)c(-c3ccc(C4(N)CCC4)cc3)c(-c3ccccc3)oc21 [Example 112]", "pIC50", "≥ 6.00"),
]

In: Can you look up the measured pIC50 of NC1(c2ccc(-c3c(-c4ccccc4)oc4c(ccn5c(=O)[nH]nc45)c3=O)cc2)CCC1 [Example 63, hydrochloride] for me?
Out: ≥ 6.00

In: Also Cc1nc2ccc3c(=O)c(-c4ccc(C5(N)CCC5)cc4)c(-c4ccccc4)oc3c2n1C [Example 90] , if possible.
Out: ≥ 6.00

In: Also NC1(c2ccc(-c3c(-c4ccccc4)oc4cc(-c5ccn[nH]5)ccc4c3=O)cc2)CCC1 [Example 17] , if possible.
Out: < 5.00

In: Also Cn1ccc2c(=O)c(-c3ccc(C4(N)CCC4)cc3)c(-c3ccccc3)oc2c1=O [Example 41, hydrochloride] , if possible.
Out: < 5.00
